Data provenance is patent US10160748B2.

# ASSAY_TARGET: TNFα trimer (Homo sapiens, UniProt P01375)
# Sequence (P01375 77-233 limits assumed): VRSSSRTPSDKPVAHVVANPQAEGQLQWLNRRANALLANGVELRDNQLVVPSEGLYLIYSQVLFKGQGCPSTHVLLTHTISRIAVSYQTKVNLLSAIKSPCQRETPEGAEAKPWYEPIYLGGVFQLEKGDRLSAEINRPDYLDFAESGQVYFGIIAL
# EXPERIMENT: TNFα FP Competitive Binding Assay
# CONDITION_SUMMARY: FP binding assay; 20 nM TNFα trimer, 1 nM OregonGreen488 probe; read-out: TNF IC50
pIC50: −log10 of the molar value.
// values below are reported pIC50

Look over these answered cases.
{"COMPOUND": "Cn1c(=O)c2cc(F)c(-c3cnc(C(C)(C)O)nc3)cc2n1Cc1cc(CC#N)ccc1OC(F)F", "pIC50": "5.00 to 6.00"}
{"COMPOUND": "Cn1c(=O)c2ccc(-c3cnc(C(C)(C)O)nc3)cc2n1Cc1cc(CO)ccc1OC(F)F", "pIC50": "> 6.00"}
{"COMPOUND": "Cn1c(=O)c2cc(F)c(-c3cnc(C(C)(C)O)nc3)cc2n1Cc1cc(Cn2cncn2)ccc1OC(F)F", "pIC50": "> 6.00"}
{"COMPOUND": "Cn1c(=O)c2ccc(-c3cnc(N4CCOCC4)nc3)cc2n1-c1cc(Cl)ccc1Cl", "pIC50": "5.00 to 6.00"}
{"COMPOUND": "Cc1ccc(OC(F)F)c(Cn2c3cc(-c4cnc(N5CCC(C(N)=O)C5)nc4)ccc3c(=O)n2C)c1 (stereo not drawn)", "pIC50": "5.00 to 6.00"}

Ask: Specify reported pIC50 for the compound shown: O=c1c2ccc(-c3cnc(N4CCOCC4)nc3)cc2n(Cc2ccccc2OC(F)F)n1C1CC1
Reply: 5.00 to 6.00

Ask: State, in one line, measured pIC50 of Cn1c(=O)c2ccc(-c3cnc(N4CCOCC4)nc3)cc2n1Cc1cc(Cl)ccc1Cl
Reply: > 6.00

Ask: Specify reported pIC50 for the compound shown: C[C@@H]1CN(C(=O)CO)CCN1c1ncc(-c2ccc3c(=O)n(C)n(Cc4ccccc4OC(F)F)c3c2F)cn1
Reply: > 6.00

Ask: Give recorded pIC50. Cn1c(=O)c2ccc(-c3nsc(N4CCOCC4)n3)cc2n1Cc1ccccc1OC(F)F
Reply: < 5.00

Ask: Report pIC50, nothing else, for this compound: Cc1ccnc(C(C)n2c3cc(-c4cnc(N5CCN(C(=O)CO)[C@H](C)C5)nc4)ccc3c(=O)n2C)c1 (stereo partly drawn)
Reply: 5.00 to 6.00
